- Tested on: HSkMC
- PROTOCOL TEXT: cytotoxicity call (relative viability < 0.9)
- EXPERIMENTAL PARAMETERS: 10 µM
Screen size: about 39,000 compounds; about 1,500 (3.8%) were called active. What follows is part of a selection rich in actives, with near analogues and random picks from the rest.
Labels: active, inactive

>  <MOLECULE>
C[C@@H]1CCCCO[C@@H](CN(C)Cc2ccc3c(c2)OCO3)[C@H](C)CN([C@H](C)CO)C(=O)c2cc(NC(=O)Nc3ccc(C(F)(F)F)cc3)ccc2O1

>  <CLASS LABEL>
active

$$$$
>  <MOLECULE>
C[C@H]1CCCCO[C@@H](CN(C)Cc2ccc3c(c2)OCO3)[C@@H](C)CN([C@@H](C)CO)C(=O)c2cc(NC(=O)Nc3ccc(C(F)(F)F)cc3)ccc2O1

>  <CLASS LABEL>
active

$$$$
>  <MOLECULE>
Cc1onc(-c2ccccc2)c1C(=O)NC1C(=O)N2C1SC(C)(C)C2C(=O)[O-].[Na+] (centres undefined)

>  <CLASS LABEL>
inactive

$$$$
>  <MOLECULE>
C[C@H]1CCCCO[C@H](CN(C)Cc2ccc3c(c2)OCO3)[C@@H](C)CN([C@@H](C)CO)C(=O)c2cc(NC(=O)Nc3ccc(C(F)(F)F)cc3)ccc2O1

>  <CLASS LABEL>
active

$$$$

====

- Test system: HSkMC (human skeletal muscle cells)
- PROTOCOL TEXT: cytotoxicity call (relative viability < 0.9)
- EXPERIMENTAL PARAMETERS: 10 µM
The campaign covered roughly 39,000 compounds. About 1,500 (3.8%) were called active. Only a selection was taken, and actives are over-represented in it overall.
Outcome codes: true (active), false (inactive)

>  <SMILES DATA>
Cc1ccc(OC(=O)N(C)C[C@@H]2OCc3ccccc3-c3ccccc3C(=O)N([C@@H](C)CO)C[C@@H]2C)cc1

>  <SYSTEM>
HSkMC

>  <CLASS LABEL>
false

$$$$
>  <SMILES DATA>
C[C@H](CO)N1C[C@H](C)[C@H](CN(C)Cc2ccc(Oc3ccccc3)cc2)Oc2c(NC(=O)c3ccc(-c4nccs4)cc3)cccc2C1=O

>  <SYSTEM>
HSkMC

>  <CLASS LABEL>
true

$$$$
>  <SMILES DATA>
CCN1C(=O)[C@H]2[C@H](O)CS[C@H]2C1=O

>  <SYSTEM>
HSkMC

>  <CLASS LABEL>
false

$$$$
>  <SMILES DATA>
COC(=O)C1=C(C)NC(C)=C(C(=O)NCCCN2CCC(c3ccccc3)(c3ccccc3)CC2)[C@@H]1c1ccc([N+](=O)[O-])cc1

>  <SYSTEM>
HSkMC

>  <CLASS LABEL>
false

$$$$
>  <SMILES DATA>
COC(=O)C1=C(C)NC(C)=C(C(=O)OC(C)(C)CN(C)CCC(c2ccccc2)c2ccccc2)[C@@H]1c1cccc([N+](=O)[O-])c1

>  <SYSTEM>
HSkMC

>  <CLASS LABEL>
true

$$$$
>  <SMILES DATA>
COc1ccc(CN(C)C[C@@H]2Oc3c(NC(=O)c4ccc(-c5nccs5)cc4)cccc3C(=O)N([C@H](C)CO)C[C@H]2C)cc1

>  <SYSTEM>
HSkMC

>  <CLASS LABEL>
true

$$$$
>  <SMILES DATA>
COc1ccccc1CN1C[C@@H](C)[C@H](OC)CN(C)C(=O)c2cc(NC(=O)Nc3ccccc3OC)ccc2OC[C@H]1C

>  <SYSTEM>
HSkMC

>  <CLASS LABEL>
false

$$$$

Origin of the recorded values: the antibiotic and cytotoxicity screens of Wong et al. (2023)
